MIC overview
System: E. coli 520
EXPERIMENT_SUMMARY: MIC, twofold microdilution, clinical strain
Assay type: cell-based
SETUP_CONDITIONS: Escherichia coli, 18 h
TEST_READOUT: MIC (µg/mL)

- MOLECULE: "O=C(O)c1cn(C2CC2)c2cc(N3CCN(C(=O)CCCl)CC3)c(F)cc2c1=O [Compound 4]"
  TEST_READOUT: "MIC"
  UNIT_DESCRIPTOR: "µg/mL"
  QUALIFYING_SIGN: "="
  OBS_VALUE: 0.8
- MOLECULE: "O=C(O)c1cn(C2CC2)c2cc(N3CCN(CCCC(=O)N4CCN(c5cc6c(cc5F)c(=O)c(C(=O)O)cn6C5CC5)CC4)CC3)c(F)cc2c1=O [Compound 18, CP–Butyryl–CP Dimer]"
  TEST_READOUT: "MIC"
  UNIT_DESCRIPTOR: "µg/mL"
  QUALIFYING_SIGN: "="
  OBS_VALUE: 1.6
- MOLECULE: "O=C(O)c1cn(C2CC2)c2cc(N3CCN(C(=O)CC(F)(F)F)CC3)c(F)cc2c1=O [Compound 14]"
  TEST_READOUT: "MIC"
  UNIT_DESCRIPTOR: "µg/mL"
  QUALIFYING_SIGN: "="
  OBS_VALUE: 0.4
- MOLECULE: "O=C(O)c1cn(C2CC2)c2cc(N3CCN(C(=O)CCBr)CC3)c(F)cc2c1=O [Compound 9]"
  TEST_READOUT: "MIC"
  UNIT_DESCRIPTOR: "µg/mL"
  QUALIFYING_SIGN: "="
  OBS_VALUE: 0.8
- MOLECULE: "O=C(O)c1cn(C2CC2)c2cc(N3CCN(C(=O)CCCCCl)CC3)c(F)cc2c1=O [Compound 6]"
  TEST_READOUT: "MIC"
  UNIT_DESCRIPTOR: "µg/mL"
  QUALIFYING_SIGN: "="
  OBS_VALUE: 0.4
- MOLECULE: "O=C(O)c1cn(C2CC2)c2cc(N3CCN(CC(=O)N4CCN(c5cc6c(cc5F)c(=O)c(C(=O)O)cn6C5CC5)CC4)CC3)c(F)cc2c1=O [Compound 17, CP–Acetyl–CP Dimer]"
  TEST_READOUT: "MIC"
  UNIT_DESCRIPTOR: "µg/mL"
  QUALIFYING_SIGN: "="
  OBS_VALUE: 3.2
- MOLECULE: "O=C(O)c1cn(C2CC2)c2cc(N3CCN(C(=O)CCC(F)(F)F)CC3)c(F)cc2c1=O [Compound 15]"
  TEST_READOUT: "MIC"
  UNIT_DESCRIPTOR: "µg/mL"
  QUALIFYING_SIGN: "="
  OBS_VALUE: 3.2
- MOLECULE: "O=C(O)c1cn(C2CC2)c2cc(N3CCN(CCCCC(=O)N4CCN(c5cc6c(cc5F)c(=O)c(C(=O)O)cn6C5CC5)CC4)CC3)c(F)cc2c1=O [Compound 19, CP–Pentanoyl–CP Dimer]"
  TEST_READOUT: "MIC"
  UNIT_DESCRIPTOR: "µg/mL"
  QUALIFYING_SIGN: "="
  OBS_VALUE: 3.2
- MOLECULE: "O=C(O)c1cn(C2CC2)c2cc(N3CCN(C(=O)CCl)CC3)c(F)cc2c1=O [Compound 3]"
  TEST_READOUT: "MIC"
  UNIT_DESCRIPTOR: "µg/mL"
  QUALIFYING_SIGN: "="
  OBS_VALUE: 0.4
- MOLECULE: "O=C(O)c1cn(C2CC2)c2cc(N3CCN(CCCCCC(=O)N4CCN(c5cc6c(cc5F)c(=O)c(C(=O)O)cn6C5CC5)CC4)CC3)c(F)cc2c1=O [Compound 20, CP–Hexanoyl–CP Dimer]"
  TEST_READOUT: "MIC"
  UNIT_DESCRIPTOR: "µg/mL"
  QUALIFYING_SIGN: "="
  OBS_VALUE: 12.8
- MOLECULE: "O=C(O)c1cn(C2CC2)c2cc(N3CCN(C(=O)CCCCl)CC3)c(F)cc2c1=O [Compound 5]"
  TEST_READOUT: "MIC"
  UNIT_DESCRIPTOR: "µg/mL"
  QUALIFYING_SIGN: "="
  OBS_VALUE: 0.025
- MOLECULE: "O=C(O)c1cn(C2CC2)c2cc(N3CCN(CCCCCCCCCCC(=O)N4CCN(c5cc6c(cc5F)c(=O)c(C(=O)O)cn6C5CC5)CC4)CC3)c(F)cc2c1=O [Compound 21, CP–Undecanoyl–CP Dimer]"
  TEST_READOUT: "MIC"
  UNIT_DESCRIPTOR: "µg/mL"
  QUALIFYING_SIGN: ">"
  OBS_VALUE: 25.6
- MOLECULE: "O=C(O)c1cn(C2CC2)c2cc(N3CCN(C(=O)CCCCBr)CC3)c(F)cc2c1=O [Compound 11]"
  TEST_READOUT: "MIC"
  UNIT_DESCRIPTOR: "µg/mL"
  QUALIFYING_SIGN: "="
  OBS_VALUE: 0.1
- MOLECULE: "O=C(O)c1cn(C2CC2)c2cc(N3CCN(C(=O)CCCCCBr)CC3)c(F)cc2c1=O [Compound 12]"
  TEST_READOUT: "MIC"
  UNIT_DESCRIPTOR: "µg/mL"
  QUALIFYING_SIGN: "="
  OBS_VALUE: 0.8
- MOLECULE: "O=C(O)c1cn(C2CC2)c2cc(N3CCN(C(=O)CCCBr)CC3)c(F)cc2c1=O [Compound 10]"
  TEST_READOUT: "MIC"
  UNIT_DESCRIPTOR: "µg/mL"
  QUALIFYING_SIGN: "="
  OBS_VALUE: 0.1
- MOLECULE: "O=C(O)c1cn(C2CC2)c2cc(N3CCN(C(=O)CCCCCCCCCCBr)CC3)c(F)cc2c1=O [Compound 13]"
  TEST_READOUT: "MIC"
  UNIT_DESCRIPTOR: "µg/mL"
  QUALIFYING_SIGN: ">"
  OBS_VALUE: 25.6
- MOLECULE: "O=C(O)c1cn(C2CC2)c2cc(N3CCN(C(=O)CCCC(F)(F)F)CC3)c(F)cc2c1=O [Compound 16]"
  TEST_READOUT: "MIC"
  UNIT_DESCRIPTOR: "µg/mL"
  QUALIFYING_SIGN: "="
  OBS_VALUE: 3.2

* * *

Tested on: S. epidermidis ATCC 12228
EXPERIMENT_SUMMARY: MIC, twofold microdilution, standard strain
Type: cell-based
SETUP_CONDITIONS: Staphylococcus epidermidis, ATCC12228, 18 h
Field 'label' (enum: fulfilled / not fulfilled). Set to fulfilled when MIC is strictly under 0.2 µg/mL; else not fulfilled.

- COMPOUND: "O=C(O)c1cn(C2CC2)c2cc(N3CCN(CCCC(=O)N4CCN(c5cc6c(cc5F)c(=O)c(C(=O)O)cn6C5CC5)CC4)CC3)c(F)cc2c1=O [Compound 18, CP–Butyryl–CP Dimer]"
  LABEL: "not fulfilled"
- COMPOUND: "O=C(O)c1cn(C2CC2)c2cc(N3CCN(C(=O)C4CC4)CC3)c(F)cc2c1=O [Compound 2]"
  LABEL: "fulfilled"
- COMPOUND: "O=C(O)c1cn(C2CC2)c2cc(N3CCN(C(=O)CCCCCBr)CC3)c(F)cc2c1=O [Compound 12]"
  LABEL: "not fulfilled"
- COMPOUND: "O=C(O)c1cn(C2CC2)c2cc(N3CCN(CCCCCCCCCCC(=O)N4CCN(c5cc6c(cc5F)c(=O)c(C(=O)O)cn6C5CC5)CC4)CC3)c(F)cc2c1=O [Compound 21, CP–Undecanoyl–CP Dimer]"
  LABEL: "not fulfilled"
- COMPOUND: "O=C(O)c1cn(C2CC2)c2cc(N3CCN(C(=O)CC(F)(F)F)CC3)c(F)cc2c1=O [Compound 14]"
  LABEL: "not fulfilled"
- COMPOUND: "O=C(O)c1cn(C2CC2)c2cc(N3CCN(C(=O)CCCCBr)CC3)c(F)cc2c1=O [Compound 11]"
  LABEL: "fulfilled"
- COMPOUND: "O=C(O)c1cn(C2CC2)c2cc(N3CCN(C(=O)CCCCCCCCCCBr)CC3)c(F)cc2c1=O [Compound 13]"
  LABEL: "not fulfilled"
- COMPOUND: "O=C(O)c1cn(C2CC2)c2cc(N3CCN(CCCCC(=O)N4CCN(c5cc6c(cc5F)c(=O)c(C(=O)O)cn6C5CC5)CC4)CC3)c(F)cc2c1=O [Compound 19, CP–Pentanoyl–CP Dimer]"
  LABEL: "not fulfilled"

* * *

System: S. aureus NCTC 4163
EXPERIMENT_SUMMARY: MIC, twofold microdilution, standard strain
Assay type: cell-based
SETUP_CONDITIONS: Staphylococcus aureus, NCTC4163, 18 h
TEST_READOUT: log10(MIC) (log10 of the value in µg/mL)

- COMPOUND: "O=C(O)c1cn(C2CC2)c2cc(N3CCN(CCCCCC(=O)N4CCN(c5cc6c(cc5F)c(=O)c(C(=O)O)cn6C5CC5)CC4)CC3)c(F)cc2c1=O [Compound 20, CP–Hexanoyl–CP Dimer]"
  TGT: "S. aureus NCTC 4163"
  TEST_READOUT: "log10(MIC)"
  OBS_VALUE: 0.20
- COMPOUND: "O=C(O)c1cn(C2CC2)c2cc(N3CCN(C(=O)CCCC(F)(F)F)CC3)c(F)cc2c1=O [Compound 16]"
  TGT: "S. aureus NCTC 4163"
  TEST_READOUT: "log10(MIC)"
  OBS_VALUE: -0.70
- COMPOUND: "O=C(O)c1cn(C2CC2)c2cc(N3CCN(C(=O)CCCl)CC3)c(F)cc2c1=O [Compound 4]"
  TGT: "S. aureus NCTC 4163"
  TEST_READOUT: "log10(MIC)"
  OBS_VALUE: -0.70
- COMPOUND: "O=C(O)c1cn(C2CC2)c2cc(N3CCN(C(=O)CC(F)(F)F)CC3)c(F)cc2c1=O [Compound 14]"
  TGT: "S. aureus NCTC 4163"
  TEST_READOUT: "log10(MIC)"
  OBS_VALUE: -0.40
- COMPOUND: "O=C(O)c1cn(C2CC2)c2cc(N3CCN(CCCC(=O)N4CCN(c5cc6c(cc5F)c(=O)c(C(=O)O)cn6C5CC5)CC4)CC3)c(F)cc2c1=O [Compound 18, CP–Butyryl–CP Dimer]"
  TGT: "S. aureus NCTC 4163"
  TEST_READOUT: "log10(MIC)"
  OBS_VALUE: 0.30
- COMPOUND: "O=C(O)c1cn(C2CC2)c2cc(N3CCN(C(=O)CCCCCBr)CC3)c(F)cc2c1=O [Compound 12]"
  TGT: "S. aureus NCTC 4163"
  TEST_READOUT: "log10(MIC)"
  OBS_VALUE: -0.10
- COMPOUND: "O=C(O)c1cn(C2CC2)c2cc(N3CCN(C(=O)CCCCBr)CC3)c(F)cc2c1=O [Compound 11]"
  TGT: "S. aureus NCTC 4163"
  TEST_READOUT: "log10(MIC)"
  OBS_VALUE: -1.00
